# protocol.description: NCI Yeast Anticancer Drug Screen. Data for the rad50EPP+ strain (AID 151);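 also: 0% = growth of vehicle-treated control cultures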
# applied.conditions: S. cerevisiae rad50 mutant strain, at 100.0 µM
About 79,000 compounds went through this panel and 15% of them were active in at least one assay; those are over-represented in the sample as a whole. Active and inactive are the calls of the source. Rule as the data show it: active = growth inhibition above about 70%; inactive = the rest.
Labels: label 1 for active, label 0 for inactive

[[record]]
smiles_record = "Cn1c2ccccc2c(=O)c2cc(NC(=O)CCCCC(=O)Nc3ccc4c(c3)c(=O)c3ccccc3n4C)ccc21"
discrete_label = "label 1"

[[record]]
smiles_record = "CN(C)c1ccc(Sc2ccc3nc(N)nc(N)c3c2)cc1"
discrete_label = "label 0"

[[record]]
smiles_record = "Nc1ncncc1C(C1=C(O)COC1=O)C1=C(O)COC1=O"
discrete_label = "label 0"

[[record]]
smiles_record = "CCOC(=O)c1cc([N+](=O)[O-])cc([N+](=O)[O-])c1Sc1ncnc2nc[nH]c12"
discrete_label = "label 1"

[[record]]
smiles_record = "O=C([O][Sn]([O]C(=O)c1ccccc1)([c]1ccccc1)[c]1ccccc1)c1ccccc1"
discrete_label = "label 0"

[[record]]
smiles_record = "CCOC(=O)c1cnc2cc(C(F)(F)F)ccc2c1N=[N+]=[N-]"
discrete_label = "label 1"

[[record]]
smiles_record = "COC(=O)C1=C(C)NC(C)=C(C(=O)OC)C1c1cccc(/[N+]([O-])=C/c2ccccc2)c1"
discrete_label = "label 0"

[[record]]
smiles_record = "CC(C)c1cc(C(C)C)c(O)c(C([O-])[O-])c1.CC(C)c1cc(C(C)C)c(O)c(C([O-])[O-])c1.CC(C)c1cc(C(C)C)c(O)c(C([OH2+])[OH2+])c1.CC(C)c1cc(C(C)C)c(O)c(C([OH2+])[OH2+])c1.[Cu+2].[Cu+2].[OH3+].[OH3+]"
discrete_label = "label 0"


----------
# protocol.description: NCI Yeast Anticancer Drug Screen. Data for the wt1 strain (AID 149);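 also: 0% = growth of vehicle-treated wt1 cultures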
# applied.conditions: S. cerevisiae wt1 strain (SPY 50644) growth inhibition; at 11.0 µM; stronger effect = higher value
The panel holds about 79,000 compounds, 15% with a hit somewhere; the sample as a whole holds those more often.
observed.property: growth inhibition (%)

[[record]]
compound = "[O-][n+]1c2ccc(O)cc2nc2ccc(Br)cc21"
unit_of_measure = "%"
quantitative_readout = 22

[[record]]
compound = "CCC(C(=O)O)C1=C(c2ccccc2)CCc2ccccc21 (centres undefined)"
unit_of_measure = "%"
quantitative_readout = 97

[[record]]
compound = "CC1=C(C)Cc2c(O)ccc(O)c2C1"
unit_of_measure = "%"
quantitative_readout = -3

[[record]]
compound = "CO[C@H]1C[C@](C)(O)Cc2cc3c(c(O)c21)C(=O)c1c(O)cc2c(c1C3=O)O[C@@H]1O[C@@]2(C)[C@H](O)[C@@H](N(C)C)[C@@H]1O"
unit_of_measure = "%"
quantitative_readout = -39

[[record]]
compound = "CCC/C(Cl)=N\\OC(=O)Nc1cccc(C(F)(F)F)c1"
unit_of_measure = "%"
quantitative_readout = 0

[[record]]
compound = "O=C(CC(=O)n1nc(-c2ccccc2)c(N=Nc2ccccc2C(=O)O)c1-c1ccccc1)Nc1ccc(Cl)cc1"
unit_of_measure = "%"
quantitative_readout = -3

[[record]]
compound = "CC1=C(SCCO)C(=O)c2ccccc2C1=O"
unit_of_measure = "%"
quantitative_readout = -2

[[record]]
compound = "O=C(O)c1ccccc1NC(=S)c1ccccc1"
unit_of_measure = "%"
quantitative_readout = -4

[[record]]
compound = "COc1ccc2ccc3ccccc3c2c1C=O"
unit_of_measure = "%"
quantitative_readout = -5

[[record]]
compound = "O=C(NCCCCCCCN1CCCCCCC1)C(C1CCCCC1)C1CCCCC1"
unit_of_measure = "%"
quantitative_readout = 61

[[record]]
compound = "Cc1c(Cl)ccc2c1S(=O)(=O)c1cccc(Cl)c1-2"
unit_of_measure = "%"
quantitative_readout = -1

[[record]]
compound = "C=C1CC(Cn2cc(Br)c(=O)[nH]c2=O)(c2ccc(-c3ccccc3)cc2)OC1=O (centres undefined)"
unit_of_measure = "%"
quantitative_readout = 15

[[record]]
compound = "O=Nc1c(NO)ccc2nn(-c3ccccc3)nc12"
unit_of_measure = "%"
quantitative_readout = 96

[[record]]
compound = "c1ccc2c(c1)NC(NC1Nc3ccccc3N1)N2"
unit_of_measure = "%"
quantitative_readout = 4

[[record]]
compound = "COc1ccc(O)c(/C=N\\Nc2ccccc2)c1"
unit_of_measure = "%"
quantitative_readout = 11

[[record]]
compound = "S=c1[nH]nc(Nc2ccc(Cl)cc2)s1"
unit_of_measure = "%"
quantitative_readout = 6

[[record]]
compound = "C/C(=N\\O)C1CC2C=C(C#N)C1N(Cc1ccccc1)C2 (centres undefined)"
unit_of_measure = "%"
quantitative_readout = 1

[[record]]
compound = "N#Cc1c(N)[nH]c2ccc(Sc3ccccc3)cc12"
unit_of_measure = "%"
quantitative_readout = 1

[[record]]
compound = "CN(C)CCn1c2c3ccccc3ccc2c2oc(=O)c3ccccc3c21"
unit_of_measure = "%"
quantitative_readout = 35

[[record]]
compound = "COc1ccccc1C(=O)OCC1CCCN2CCCCC12 (centres undefined)"
unit_of_measure = "%"
quantitative_readout = 7

[[record]]
compound = "Cn1ccnc1Oc1ccc(Cl)cc1"
unit_of_measure = "%"
quantitative_readout = 22

[[record]]
compound = "CCN(CC)C(C)(C)C(=O)/C=C/c1ccccc1"
unit_of_measure = "%"
quantitative_readout = 2

[[record]]
compound = "O=c1ssc2ncccc12"
unit_of_measure = "%"
quantitative_readout = 11

[[record]]
compound = "O=C(O)CNc1ccc(Cl)c(Cl)c1"
unit_of_measure = "%"
quantitative_readout = -6

[[record]]
compound = "CC(C)=CC(=O)O[C@@H]1CC(C)(C)CC2C3=CCC4[C@]56CC[C@](O)(OC5)C(C)(C)C6CC[C@@]4(C)C3(C)CC[C@]21C(=O)O (some centres undefined)"
unit_of_measure = "%"
quantitative_readout = 85

[[record]]
compound = "OC(COc1cccc2ccccc12)CN1CCOCC1 (centres undefined)"
unit_of_measure = "%"
quantitative_readout = 30

[[record]]
compound = "CCOC(=O)C(NC(=O)c1ccccc1)(N1CCN(c2cc3c(cc2F)c(=O)c(C(=O)O)cn3C2CC2)CC1)C(F)(F)F (centres undefined)"
unit_of_measure = "%"
quantitative_readout = -1

[[record]]
compound = "Cc1ccc(S(=O)(=O)NC(=O)NC2=NC(C)(C)N(c3ccc(Cl)c(Cl)c3)C(N)=N2)cc1"
unit_of_measure = "%"
quantitative_readout = -1

[[record]]
compound = "CC(C)c1cc(C(C)C)c(O)c(C([O-])[O-])c1.CC(C)c1cc(C(C)C)c(O)c(C([O-])[O-])c1.CC(C)c1cc(C(C)C)c(O)c(C([OH2+])[OH2+])c1.CC(C)c1cc(C(C)C)c(O)c(C([OH2+])[OH2+])c1.[Cu+2].[Cu+2].[OH3+].[OH3+]"
unit_of_measure = "%"
quantitative_readout = 20

[[record]]
compound = "CC(C)/C(Cl)=N\\OC(=O)Nc1ccc(F)cc1"
unit_of_measure = "%"
quantitative_readout = -3

[[record]]
compound = "CC(C)(CN1CCCCC1)C(=O)CC(SCCS(=O)(=O)O)c1ccc(Br)cc1 (centres undefined)"
unit_of_measure = "%"
quantitative_readout = 9

[[record]]
compound = "CC(=O)ON1C(=O)c2cccc3cccc(c23)C1=O"
unit_of_measure = "%"
quantitative_readout = 76

[[record]]
compound = "CCCCCCCCCCNC(=O)OCC"
unit_of_measure = "%"
quantitative_readout = -4

[[record]]
compound = "C=CC(C)(O)CCC1C(=C)C(O)CC2C(C)(C)CCCC12C (centres undefined)"
unit_of_measure = "%"
quantitative_readout = -17

